- Tested on: MDA-MB-435
- test summary: NCI tumour cell line growth inhibition, 48 h
What TGI was measured for each of the following?
One number for each entry, in µM.

// solved cases for TGI follow
[[record]]
compound = "O=C1c2ccc3cc(CCl)cc(O)c3c2C(=O)c2cccc(O)c21"
test_target = "MDA-MB-435"
measure_name = "TGI"
test_result = 0.324

[[record]]
compound = "CC(C)=NNc1ncnc2c1ncn2C1OC(CO)C(O)C1O (stereo not drawn)"
test_target = "MDA-MB-435"
measure_name = "TGI"
test_result = 11.7

[[record]]
compound = "COc1ccc(F)cc1/C=C/C(=O)/C=C(/C=C/c1cc(F)ccc1OC)OB(F)F"
test_target = "MDA-MB-435"
measure_name = "TGI"
test_result = 5.02

[[record]]
compound = "COc1ccc(Cc2nc3cc([N+](=O)[O-])ccc3n2C[C@@H]2CCCN3CCCCC23)cc1 (stereo partly drawn)"
test_target = "MDA-MB-435"
measure_name = "TGI"
test_result = 38.1

[[record]]
compound = "COc1ccccc1-c1cc(=O)c2ccccc2n1C1CC1"
test_target = "MDA-MB-435"
measure_name = "TGI"
test_result = 12.5


q: Consider the compound "COc1cnc2c(c1)C(=O)c1c-2n(CCCBr)c(=O)c2cc([N+](=O)[O-])ccc12" and give its measured TGI.
a: 5.04

----------
- System: SW-620 colon
- test summary: NCI tumour cell line growth inhibition, 48 h
measure name: TGI

[[record]]
molecule = "CCn1cc(C(=O)N/N=C/c2ccc(Br)cc2)c(=O)c2cc(F)c(N3CCNC(C)C3)c(F)c21 (stereo not given)"
test_result = "3.18 µM"

[[record]]
molecule = "COc1ccc(Cc2nc3cc([N+](=O)[O-])ccc3n2C[C@@H]2CCCN3CCCCC23)cc1 (stereo not given in full)"
test_result = "81.8 µM"

[[record]]
molecule = "COC(=S)OC1CC(n2cnc3c(=O)[nH]cnc32)OC1CO[Si](C)(C)C(C)(C)C (stereo not given)"
test_result = "> 100 µM"

[[record]]
molecule = "c1cc2sc1CSCCSCCSC2"
test_result = "> 100 µM"


Below is a list of molecules. For each, state its recorded TGI.
1. COc1cc2c(cc1OC)C(Cc1ccc(Oc3cc(CC4c5cc(OC)c(OC)cc5CCN4C)ccc3O)cc1)N(C)CC2 (stereo not given)
2. O=[N+]([O-])c1ccc(N=Nc2c(O)[nH]c3ccc(Br)cc23)cc1
3. Fc1ccc(-c2nnc3sc(-c4cc(Cl)cc(Cl)c4)nn23)cc1Cl
4. COC(=O)c1ccc(NC(=O)c2cc3c(cc2Br)OCO3)o1
5. CCCCn1c(C)c(C(=O)CC)c(C(=O)NCCN2CCN(c3ccccc3Cl)CC2)c1C

a:
["35.5 µM", "> 100 µM", "> 100 µM", "> 100 µM", "> 100 µM"]

Below is a list of molecules. For each, state its recorded TGI.
1. Oc1c(Cl)cc(Cl)c2ccc(Cn3cc(-c4cc(F)cc(F)c4)nn3)nc12
2. O=C1C(c2ccccc2)=[N+]([O-])c2cc([N+](=O)[O-])c(/C(Cl)=C/c3ccccc3)cc21
3. Cc1ccc(S(=O)(=O)NCCN(CCNS(=O)(=O)c2ccc(C)cc2)S(=O)(=O)c2ccc(C)cc2)cc1
4. CC(=NCC(=O)O)c1ccccc1
5. CCOC(=O)N1C(=O)C2C3C=CC(C2C1=O)C1C2C(=O)N(C(=O)OCC)C(=O)C2C31 (stereo not given)
6. CCOC(=O)Cn1nc2ccc(Nc3c(C)[n+]([O-])c4cc(F)c(OCC)cc4[n+]3[O-])cc2n1

a:
["3.35 µM", "31.1 µM", "> 100 µM", "> 100 µM", "> 59.4 µM", "> 100 µM"]

Below is a list of molecules. For each, state its recorded TGI.
1. Cn1c(=O)c2c(ncn2Cc2ccc(O)c([N+](=O)[O-])c2)n(C)c1=O
2. CC1=Nn2c(nnc2-c2ccc(Cl)cc2)NC(C)(C)C1
3. OC1(c2ccccc2)CCCCCCCCC(O)(c2ccccc2)CCCCCCCC1 (stereo not given)

a:
["> 100 µM", "> 100 µM", "> 100 µM"]

Below is a list of molecules. For each, state its recorded TGI.
1. Clc1ccc(CSC2=NCCN2)cc1Cl
2. CCn1ncc(Oc2c(Cl)cc(N)cc2Cl)c(Cl)c1=O
3. Cc1cc(C)nc(NS(=O)(=O)c2ccc(NC(=O)c3ccc(Cl)c4c(Nc5ccc(S(=O)(=O)Nc6cc(C)on6)cc5)c5ccccc5nc34)cc2)n1

a:
1: 35.4 µM; 2: > 100 µM; 3: 33.1 µM

Below is a list of molecules. For each, state its recorded TGI.
1. COC1=C(OC)C23CCc4ccc(OC)c(O)c4C2(CCN3)CC1=O (stereo not given)
2. COc1ccc(CN2C(=O)C(Cl)=C(Nc3cccc(O)c3)C2=O)cc1
3. CC(=O)Nc1ccc2c(C3=C(c4cn(C)c5ccccc45)C(=O)NC3=O)cn(C)c2c1
4. COc1ccccc1-n1c(C)nc2ccccc2c1=O

a:
["> 100 µM", "> 100 µM", "> 25 µM", "> 100 µM"]

Below is a list of molecules. For each, state its recorded TGI.
1. CC(C)(C)OC(=O)NCCCCCCC(=O)Cc1ccccc1
2. Cn1c(/C=C/CO)c(CO)c2c1C(=O)C=C(N1CC1)C2=O
3. COc1cnc2c(c1)C(=O)c1c-2n(CCCBr)c(=O)c2cc([N+](=O)[O-])ccc12
4. COc1cc2c(cc1OC)[Se]c1cc(OC)c(OC)cc1[Se]2

a:
1: > 100 µM; 2: 0.104 µM; 3: 5.13 µM; 4: > 100 µM

Below is a list of molecules. For each, state its recorded TGI.
1. Cn1c(-c2c(N)n(Cc3ccc(C(F)(F)F)cc3)c3nc(C#N)c(C#N)nc23)nc2ccccc21
2. COc1cc(C(C)c2ccc3c(ccn3C)c2)cc(OC)c1OC (stereo not given)
3. CN(C)CCCNC(=O)N/N=C\c1cccc2ccccc12
4. Nc1ncnc2nc(N3CCN(CCO)CC3)[nH]c12

a:
42.2 µM
> 100 µM
> 10 µM
> 100 µM

Below is a list of molecules. For each, state its recorded TGI.
1. COc1cc2c(cc1OCCCNC(=O)/C=C1/C[C@H]3C=Nc4cc(OCc5ccccc5)c(OC)cc4C(=O)N3C1)NC(=O)[C@@H]1CCCN1C2=O
2. Cc1c2nc3ccccc3sc-2cc(=O)c1C

a:
1. > 100 µM
2. > 100 µM
